Test system: Plasmodium berghei
Assay overview: Screen against P. berghei liver stage (PbLuc), transformed with Luciferase, at 10uM
Type: functional, HepG2
Run parameters: tested at 10 uM
About 8,600 (12%) of roughly 69,000 compounds showed an effect of 50% or more. Many of the other results were omitted from the sample, so strong results are more common in it than they were.
Let's look at some molecules and their measured INHIBITION.
Give the value in % but do not write % after it.

CN(C)C(=O)c1c[nH]nc1C1CCN(S(=O)(=O)c2ccc(Cl)cc2)CC1 = 24.8

Inquiry: Request - read-out INHIBITION | tested on Plasmodium berghei | molecule CCc1nc(C2CCCN2C(=O)c2cc3c(s2)CCC3)no1 (stereo unspecified)
Reply text: 7.08

Inquiry: Notebook: pull reported INHIBITION for Plasmodium berghei, entry Cn1cccc1C(=O)NC[C@H]1C[C@@H]2CN(C(=O)c3ccno3)C[C@H]2O1
Reply text: 42.3

Inquiry: Please state recorded INHIBITION (tested on Plasmodium berghei) of COc1ccccc1CNc1c(O)c(=O)c1=O
Reply text: 21.7

Inquiry: # value lookup — system Plasmodium berghei, readout INHIBITION, item Cc1nc(CCNC(=O)NC2CCCc3c2cnn3CCO)cs1 (stereo unspecified)
Reply text: 26.9

Inquiry: Lookup: INHIBITION / Plasmodium berghei / O=C(NCC1CCCO1)c1nc2c(s1)CCCN2CC1CC1 (stereo unspecified)
Reply text: -14.2

Inquiry: Item: FC(F)(F)c1ccc(-c2cnc(C3CCCN3)cn2)cc1 (stereo unspecified) Test system: Plasmodium berghei Read-out: INHIBITION Value: ?
Reply text: 34.675

Inquiry: Please state recorded INHIBITION (tested on Plasmodium berghei) of CC(C)(CNC(=O)C1CCCN(C(N)=O)C1)c1cccc(Cl)c1 (stereo unspecified)
Reply text: 21.5

Inquiry: Lookup: INHIBITION / Plasmodium berghei / Cc1nnc(N2CC[C@H]3C[C@@H](C(=O)NC4CCCC4)O[C@H]3C2)s1
Reply text: 61.4

Inquiry: Request: INHIBITION, test system Plasmodium berghei, entry NC(=O)N1CCCC(C(=O)Nc2cccc(Cl)c2)C1 (stereo unspecified)
Reply text: 37.5

Inquiry: Short answer please: INHIBITION, Plasmodium berghei, entry COCC(=O)N1CCC(c2n[nH]c3nccnc23)CC1
Reply text: -22.6

Inquiry: Tell me reported INHIBITION for Cc1ccc(CN2CC[C@H]3C[C@H](C(=O)N(C)C)O[C@H]3C2)cc1 , tested with Plasmodium berghei.
Reply text: 25.5

Inquiry: # returns recorded INHIBITION (system: Plasmodium berghei) for O=C(NC1CCCCC1)N1CCc2onc(COc3cccnc3)c2C1
Reply text: 40.4

Inquiry: Param readout= INHIBITION; system= Plasmodium berghei; entry= CC(C)(CNc1cccc(Cl)c1)NC(=O)C1CCCN(CC(N)=O)C1 (stereo unspecified) ; returns value.
Reply text: 69.9

Inquiry: Identify the measured INHIBITION of Cc1nc(C(C)(C)NC(=O)Nc2ccc(C#N)cc2)no1 for Plasmodium berghei.
Reply text: 79.2

Inquiry: Any idea what INHIBITION came out for O=C(NCC1CCCCC1)NC1CCCc2c1cnn2CCO (stereo unspecified) on Plasmodium berghei?
Reply text: 55.1

###

INHIBITION: recorded values
Tested on: Plasmodium berghei
Assay overview: Screen against P. berghei liver stage (PbLuc), transformed with Luciferase, at 10uM
Type: functional, HepG2
Run parameters: tested at 10 uM
Hit rate of the full screen: of about 69,000 compounds, about 8,600 (12%) showed an effect of 50% or more. Many of the other results were omitted from the sample, so strong results are more common in it than they were.
Please respond with the number in % and leave the unit unwritten.

These solved cases illustrate the format of a correct answer.
O=C(Cc1ccc2c(c1)CCO2)N1CCCCC1Cn1cccn1 (configuration not stated) = -35.5
CCN(Cc1cnn(C)c1)C[C@H]1CC[C@@H](Cc2ccc(OC)nc2)O1 = -22.3
COc1ccccc1C(C)CC(=O)N1CCCS1(=O)=O (configuration not stated) = -6.7
CCn1[nH]c(C)c2c(C(F)(F)F)cc(=O)nc1-2 = 31.7
CCCOc1ccc(Cl)cc1NC(=O)NCCC(=O)N(C)C = -5.32
COc1cc(-c2nc(CN(CCO)CCO)c(C)o2)ccc1F = 22.5
Cc1c(Br)cnn1CC(=O)Nc1ccon1 = 34.2
CNC(=O)C1CN(Cc2cc(C)on2)CCN(C2CCOCC2)C1 (configuration not stated) = -3.94
COc1ccc(CC(=O)N2CCCCC2Cn2cccn2)cc1OC (configuration not stated) = 0.79
CC(Cc1ccc(C(F)(F)F)cc1)C(=O)N1CCCS1(=O)=O (configuration not stated) = -33.4

Inquiry: Find the recorded INHIBITION belonging to CCn1[nH]c(C)c2c(C(F)(F)C(F)(F)F)cc(=O)nc1-2 and report it.
Reply text: 50.5

Inquiry: Find the recorded INHIBITION belonging to O=C(Cc1ccc(O)c(Cl)c1)N1CCCCC1CCn1cccn1 (configuration not stated) and report it.
Reply text: 60.1

###

System: Plasmodium berghei
Assay overview: Screen against P. berghei liver stage (PbLuc), transformed with Luciferase, at 10uM
Assay type: functional, HepG2
Run parameters: tested at 10 uM
The campaign covered roughly 69,000 compounds. About 8,600 (12%) showed an effect of 50% or more. Shown is part of a subset that was picked to be rich in strong results.
Each entry below carries its recorded INHIBITION.
Value expressed in %; do not type the unit.

Consider the reported INHIBITION for these compounds:
Cc1cc(C)n(CC2CCCN2C(=O)c2cncnc2C)n1 (stereo unspecified) = -2.1
CN1Cc2ccccc2CC2(CCN(C(=O)N3CCOCC3)CC2)C1=O = 26.5
CCN1CC[C@]2(CN(C(=O)[C@H]3CCCO3)C[C@H]2c2ccccc2)C1=O = 52.3
Cc1ccc2c(n1)N(C)CCN(C(=O)NC(C)C)C2 = 23.6
O=C(CCN1C(=O)CC2(CCCC2)C1=O)NCCc1nccs1 = 20

Here is another compound to look at.
Inquiry: Item under review: Cc1occc1CNC(=O)NCCN(C)C1CCCC1 . Reported INHIBITION?
Reply text: 16.8

###

Test system: Plasmodium berghei
Assay overview: Screen against P. berghei liver stage (PbLuc), transformed with Luciferase, at 10uM
Assay type: functional, HepG2
Run parameters: tested at 10 uM
Among all 69,000 compounds or so, about 8,600 (12%) showed an effect of 50% or more. Shown is part of a subset that was picked to be rich in strong results.
Listing of recorded INHIBITION by entry.
Report the value in % with no unit label.

Some solved entries appear below for comparison.
CN(C(=O)c1cc(Cl)c[nH]1)C1CCN(c2ccccn2)CC1 = 50.4
CCN(C)S(=O)(=O)N(Cc1cscn1)c1ccccc1 = 66.4
CCN(C(=O)Cn1cc(NC(=O)C(C)(C)C)cn1)c1ccccc1 = 7.65
CCOC(=O)CN(C)C1CCc2ccccc21 (centres undefined) = 34.7
CN(c1ccncn1)C1CC2(CCN(C(=O)c3cccn3C)C2)C1 (centres undefined) = 15.9

Inquiry: Hello, I am looking for reported INHIBITION with Plasmodium berghei for CCn1c(CN(C)Cc2cnc(C)s2)nc2cc(F)ccc21 . Could you help?
Reply text: -2.09

Inquiry: Hi! What's the reported INHIBITION for CC(C)(O)CNC(=O)NCc1nccn1CCc1ccccc1 on Plasmodium berghei?
Reply text: -4.63

Inquiry: Report INHIBITION for CN(C(=O)Cc1ccc(F)cc1)C1CCN(c2ccccn2)CC1 tested on Plasmodium berghei.
Reply text: -1.14

Inquiry: Plasmodium berghei / INHIBITION / CCn1ccc(-c2cc(NCCCOc3cccc(C)c3)nc(C)n2)n1 : value?
Reply text: 75.9

Inquiry: # value lookup — system Plasmodium berghei, readout INHIBITION, item CNC(=O)N1CCc2cc(C(=O)N(C)C)c(NCC3CC3)nc2CC1
Reply text: -25

Inquiry: Value wanted: INHIBITION (Plasmodium berghei) of entry CCn1ccc(-c2cc(NCCCOc3ccccc3C)nc(C)n2)n1
Reply text: 82.4

Inquiry: Form entry - test system: Plasmodium berghei; read-out: INHIBITION; molecule: COc1ccccc1OCCNCCn1cccn1
Reply text: 19.4

Inquiry: So what INHIBITION did CCc1nnc(CN(C)c2nc(C3CCCC3)nc3c2cnn3C)o1 get with Plasmodium berghei?
Reply text: 1.81

###

# INHIBITION per record follows
Tested on: Plasmodium berghei
Assay overview: Screen against P. berghei liver stage (PbLuc), transformed with Luciferase, at 10uM
Type: functional, HepG2
Run parameters: tested at 10 uM
Hit rate of the full screen: of about 69,000 compounds, about 8,600 (12%) showed an effect of 50% or more. The full list was thinned out, with strong results kept by preference.
Value expressed in %; do not type the unit.

Inquiry: Please report the recorded INHIBITION for CN(C)C(=O)C1CCN(Cc2csc(C(C)(C)C)n2)CC1 .
Reply text: 56.4

Inquiry: Given the compound CN1CCC(NC(=O)Cc2csc(C(C)(C)C)n2)CC1 , what is its reported INHIBITION?
Reply text: 47.2

Inquiry: # lookup: INHIBITION of c1cncc(-c2noc(CN3CCCCC3Cn3cccn3)n2)c1 (stereo not drawn)
Reply text: 33.8
